assay: Lipophilicity determination (log P), shake-flask; format: physicochemical; details: 1-octanol/water shake-flask, 25°C

# Compound, logP at 2 h
data = [
    ("c1ccc(-c2nnc(N3CCN(c4ncccn4)CC3)cc2-c2ccncc2)cc1 [MW01-2-069A-SRM]", 3.18),
]
